FYI, the data here is from paper PMC6804080.

Test summary: plasma protein binding, equilibrium dialysis, human plasma
Assay type: in vitro ADME
Protocol conditions: pH 7.4, read-out: PPB: fraction bound, human (converted)
Measurement type: fraction unbound at 4 h, 5 µM
Enter a number only.

Input line: What does the data say about its fraction unbound at 4 h, 5 µM? Entry: O=C(OCc1cc(Cl)cc(Cl)c1)N1CCN(C2CCN(C(=O)c3cccc4c3B(O)OC4)C2)CC1 (stereo not shown) [Compound 31]
Output line: 0.022

Input line: What does the data say about its fraction unbound at 4 h, 5 µM? Entry: O=C(OCc1cc(Cl)cc(Cl)c1)N1CCN(C2CCN(C(=O)c3ccc4c(c3)COB4O)CC2)CC1 [Compound 35]
Output line: 0.017

Input line: What does the data say about its fraction unbound at 4 h, 5 µM? Entry: O=C(OCc1cc(Cl)cc(Cl)c1)N1CCN(C2CCN(C(=O)c3ccc4c(c3)B(O)OC4)C2)CC1 (stereo not shown) [Compound 30]
Output line: 0.016

Input line: What does the data say about its fraction unbound at 4 h, 5 µM? Entry: Cc1cc(C)cc(COC(=O)N2CCN(C3CN(C(=O)c4ccc5c(c4)B(O)OC5)C3)CC2)c1 [Compound 45]
Output line: 0.041

Input line: What does the data say about its fraction unbound at 4 h, 5 µM? Entry: O=C(OCc1cc(Cl)cc(Cl)c1)N1CCN(C2CN(C(=O)c3ccc4c(c3)B(O)OC4)C2)CC1 [Compound 37]
Output line: 0.021

Input line: What does the data say about its fraction unbound at 4 h, 5 µM? Entry: Cc1cc(C)cc(COC(=O)N2CCN(C3CCN(C(=O)c4ccc5c(c4)B(O)OC5)C3)CC2)c1 (stereo not shown) [Compound 43]
Output line: 0.022

---

Test summary: metabolic stability in human liver microsomes
Assay type: in vitro ADME
For each of the compounds below, state its LMS: predicted in vivo hepatic clearance, human.
State the answer as a number, implicitly in %LBF.

Input line: What does the data say about its LMS: predicted in vivo hepatic clearance, human? Entry: Cc1cc(C)cc(COC(=O)N2CCN(C3CN(C(=O)c4ccc5c(c4)B(O)OC5)C3)CC2)c1
Output line: 84

Input line: What does the data say about its LMS: predicted in vivo hepatic clearance, human? Entry: O=C(OCc1cc(Cl)cc(Cl)c1)N1CCN(C2CCN(C(=O)c3ccc4c(c3)B(O)OC4)C2)CC1 (stereo not shown)
Output line: 82

Input line: What does the data say about its LMS: predicted in vivo hepatic clearance, human? Entry: O=C(OCc1cc(Cl)cc(Cl)c1)N1CCN(C2CN(C(=O)c3ccc4c(c3)COB4O)C2)CC1
Output line: 79

Input line: What does the data say about its LMS: predicted in vivo hepatic clearance, human? Entry: O=C(OCc1cc(Cl)cc(Cl)c1)N1CCN(C2CCN(C(=O)c3ccc4c(c3)COB4O)CC2)CC1
Output line: 89

---

Test summary: in vitro plasma stability, human plasma
Type: in vitro ADME
Protocol conditions: after 4 h
For each of the compounds below, state its PS (plasma stability), human.
State the answer as a number, implicitly in %remaining.

Input line: What does the data say about its PS (plasma stability), human? Entry: Cc1cc(C)cc(COC(=O)N2CCN(C3CCN(C(=O)c4ccc5c(c4)B(O)OC5)C3)CC2)c1 (stereo not shown) [Compound 43]
Output line: 79.2

Input line: What does the data say about its PS (plasma stability), human? Entry: O=C(OCc1cc(Cl)cc(Cl)c1)N1CCN(C2CCN(C(=O)c3ccc4c(c3)B(O)OC4)CC2)CC1 [Compound 34]
Output line: 70.6

Input line: What does the data say about its PS (plasma stability), human? Entry: O=C1S/C(=C\c2ccc(OCc3ccc(B(O)O)cc3)cc2)C(=O)N1Cc1ccc(F)cc1 [HA155, reference compound]
Output line: 42.9

Input line: What does the data say about its PS (plasma stability), human? Entry: Cc1cc(C)cc(COC(=O)N2CCN(C3CN(C(=O)c4ccc5c(c4)B(O)OC5)C3)CC2)c1 [Compound 45]
Output line: 72.8

---

Test summary: plasma protein binding, equilibrium dialysis, rat plasma
Format: in vitro ADME
Protocol conditions: pH 7.4, rat plasma, read-out: fraction unbound, rat plasma
Measurement type: fraction unbound at 4 h, 5 µM
Enter a number only.

Input line: What does the data say about its fraction unbound at 4 h, 5 µM? Entry: O=C1S/C(=C\c2ccc(OCc3ccc(B(O)O)cc3)cc2)C(=O)N1Cc1ccc(F)cc1 [HA155, reference compound]
Output line: 0.004

---

Test summary: metabolic stability in rat liver microsomes
Type: in vitro ADME
Measurement type: LMS: predicted in vivo hepatic clearance, rat (%LBF)
State the answer as a number, implicitly in %LBF.

Input line: What does the data say about its LMS: predicted in vivo hepatic clearance, rat? Entry: O=C(OCc1cc(Cl)cc(Cl)c1)N1CCN(C2CCN(C(=O)c3ccc4c(c3)B(O)OC4)CC2)CC1 [Compound 34]
Output line: 77

Input line: What does the data say about its LMS: predicted in vivo hepatic clearance, rat? Entry: O=C(OCc1cc(Cl)cc(Cl)c1)N1CCN(C2CCN(C(=O)c3ccc4c(c3)B(O)OC4)C2)CC1 (stereo not drawn) [Compound 30]
Output line: 86

Input line: What does the data say about its LMS: predicted in vivo hepatic clearance, rat? Entry: O=C(OCc1cc(Cl)cc(Cl)c1)N1CCN(C2CN(C(=O)c3ccc4c(c3)B(O)OC4)C2)CC1 [Compound 37]
Output line: 62

Input line: What does the data say about its LMS: predicted in vivo hepatic clearance, rat? Entry: Cc1cc(C)cc(COC(=O)N2CCN(C3CN(C(=O)c4ccc5c(c4)B(O)OC5)C3)CC2)c1 [Compound 45]
Output line: 61

Input line: What does the data say about its LMS: predicted in vivo hepatic clearance, rat? Entry: O=C(OCc1cc(Cl)cc(Cl)c1)N1CCN(C2CCN(C(=O)c3ccc4c(c3)COB4O)CC2)CC1 [Compound 35]
Output line: 86

Input line: What does the data say about its LMS: predicted in vivo hepatic clearance, rat? Entry: O=C(OCc1cc(Cl)cc(Cl)c1)N1CCN(C2CN(C(=O)c3ccc4c(c3)COB4O)C2)CC1 [Compound 38]
Output line: 82

Input line: What does the data say about its LMS: predicted in vivo hepatic clearance, rat? Entry: O=C(OCc1cc(Cl)cc(Cl)c1)N1CCN(C2CCN(C(=O)c3cccc4c3B(O)OC4)C2)CC1 (stereo not drawn) [Compound 31]
Output line: 86

Input line: What does the data say about its LMS: predicted in vivo hepatic clearance, rat? Entry: Cc1cc(C)cc(COC(=O)N2CCN(C3CCN(C(=O)c4ccc5c(c4)B(O)OC5)C3)CC2)c1 (stereo not drawn) [Compound 43]
Output line: 80

---

Test summary: in vitro plasma stability, human plasma
Format: in vitro ADME
Protocol conditions: after 4 h
Measurement type: PS (plasma stability), human (%remaining)
State the answer as a number, implicitly in %remaining.

Input line: What does the data say about its PS (plasma stability), human? Entry: O=C(OCc1cc(Cl)cc(Cl)c1)N1CCN(C2CCN(C(=O)c3ccc4c(c3)COB4O)CC2)CC1
Output line: 59.2

Input line: What does the data say about its PS (plasma stability), human? Entry: O=C(OCc1cc(Cl)cc(Cl)c1)N1CCN(C2CCN(C(=O)c3cccc4c3B(O)OC4)C2)CC1 (centres unmarked)
Output line: 71.6

Input line: What does the data say about its PS (plasma stability), human? Entry: O=C(OCc1cc(Cl)cc(Cl)c1)N1CCN(C2CCN(C(=O)c3ccc4c(c3)B(O)OC4)C2)CC1 (centres unmarked)
Output line: 66.5

Input line: What does the data say about its PS (plasma stability), human? Entry: O=C(OCc1cc(Cl)cc(Cl)c1)N1CCN(C2CN(C(=O)c3ccc4c(c3)B(O)OC4)C2)CC1
Output line: 79.1

Input line: What does the data say about its PS (plasma stability), human? Entry: O=C(OCc1cc(Cl)cc(Cl)c1)N1CCN(C2CN(C(=O)c3ccc4c(c3)COB4O)C2)CC1
Output line: 79.1

---

Target: Autotaxin (ATX) (Homo sapiens, UniProt Q13822)
Construct: we added 10 μL of recombinant ATX (2 ng/mL) in a Tris–HCl buffer
Test summary: biochemical choline detection assay for ATX inhibition, LysoPC substrate
Protocol conditions: choline release assay using as a substrate; mean standard deviation from duplicate experiments
Lab note - cut at 8 µM for IC50: condition met if strictly below, condition not met if not.

Input line: Please indicate whether the reported IC50 of Cc1cc(C)cc(COC(=O)N2CCN(C3CN(C(=O)c4ccc5c(c4)B(O)OC5)C3)CC2)c1 [Compound 45] is strictly below 8 µM.
Output line: condition met

Input line: Please indicate whether the reported IC50 of O=C(OCc1cc(Cl)cc(Cl)c1)N1CCN(C2CCN(C(=O)c3ccc4c(c3)B(O)OC4)C2)CC1 (centres unmarked) [Compound 30] is strictly below 8 µM.
Output line: condition met

Input line: Please indicate whether the reported IC50 of Cc1cc(C)cc(COC(=O)N2CCN(C3CN(C(=O)c4ccc5c(c4)COB5O)C3)CC2)c1 [Compound 46] is strictly below 8 µM.
Output line: condition met

Input line: Please indicate whether the reported IC50 of O=C(OCc1ccccc1)N1CCN(C2CN(C(=O)c3ccc4c(c3)COB4O)C2)CC1 [Compound 42] is strictly below 8 µM.
Output line: condition not met

Input line: Please indicate whether the reported IC50 of O=C(OCc1ccccc1)N1CCN(C2CCN(C(=O)c3ccc4c(c3)COB4O)C2)CC1 (centres unmarked) [Compound 40] is strictly below 8 µM.
Output line: condition not met

Input line: Please indicate whether the reported IC50 of Cc1cc(C)cc(COC(=O)N2CCN(C3CCN(C(=O)c4ccc5c(c4)COB5O)C3)CC2)c1 (centres unmarked) [Compound 44] is strictly below 8 µM.
Output line: condition met

Input line: Please indicate whether the reported IC50 of O=C(OCc1cc(Cl)cc(Cl)c1)N1CCN(C2CN(C(=O)c3ccc4c(c3)B(O)OC4)C2)CC1 [Compound 37] is strictly below 8 µM.
Output line: condition met

Input line: Please indicate whether the reported IC50 of O=C(OCc1cc(Cl)cc(Cl)c1)N1CCN(C2CCN(C(=O)c3ccc4c(c3)COB4O)C2)CC1 (centres unmarked) [Compound 32] is strictly below 8 µM.
Output line: condition met

Input line: Please indicate whether the reported IC50 of O=C(OCc1cc(Cl)cc(Cl)c1)N1CCN(C2CN(C(=O)c3ccc4c(c3)COB4O)C2)CC1 [Compound 38] is strictly below 8 µM.
Output line: condition met

Input line: Please indicate whether the reported IC50 of COc1cc(COC(=O)N2CCN(C3CCN(C(=O)c4ccc5c(c4)B(O)OC5)C3)CC2)cc(OC)c1 (centres unmarked) [Compound 47] is strictly below 8 µM.
Output line: condition not met

Input line: Please indicate whether the reported IC50 of O=C(OCc1ccccc1)N1CCN(C2CN(C(=O)c3ccc4c(c3)B(O)OC4)C2)CC1 [Compound 41] is strictly below 8 µM.
Output line: condition not met

Input line: Please indicate whether the reported IC50 of O=C(OCc1cc(Cl)cc(Cl)c1)N1CCN(C2CCN(C(=O)c3cccc4c3B(O)OC4)C2)CC1 (centres unmarked) [Compound 31] is strictly below 8 µM.
Output line: condition met

Input line: Please indicate whether the reported IC50 of Cc1cc(C)cc(COC(=O)N2CCN(C3CCN(C(=O)c4ccc5c(c4)B(O)OC5)C3)CC2)c1 (centres unmarked) [Compound 43] is strictly below 8 µM.
Output line: condition met

Input line: Please indicate whether the reported IC50 of COc1cc(COC(=O)N2CCN(C3CCN(C(=O)c4ccc5c(c4)COB5O)C3)CC2)cc(OC)c1 (centres unmarked) [Compound 48] is strictly below 8 µM.
Output line: condition not met

Input line: Please indicate whether the reported IC50 of O=C(OCc1ccccc1)N1CCN(C2CCN(C(=O)c3ccc4c(c3)B(O)OC4)C2)CC1 (centres unmarked) [Compound 39] is strictly below 8 µM.
Output line: condition not met

Input line: Please indicate whether the reported IC50 of O=C(OCc1cc(Cl)cc(Cl)c1)N1CCN(C2CCN(C(=O)c3ccc4c(c3)COB4O)CC2)CC1 [Compound 35] is strictly below 8 µM.
Output line: condition met

Input line: Please indicate whether the reported IC50 of COc1cc(COC(=O)N2CCN(C3CN(C(=O)c4ccc5c(c4)B(O)OC5)C3)CC2)cc(OC)c1 [Compound 49] is strictly below 8 µM.
Output line: condition not met
